// provenance: paper PMC7944397

# target: MERS-CoV M^pro (Human betacoronavirus 2c EMC/2012)
# Sequence (K0BWD0 3248-3553 limits assumed): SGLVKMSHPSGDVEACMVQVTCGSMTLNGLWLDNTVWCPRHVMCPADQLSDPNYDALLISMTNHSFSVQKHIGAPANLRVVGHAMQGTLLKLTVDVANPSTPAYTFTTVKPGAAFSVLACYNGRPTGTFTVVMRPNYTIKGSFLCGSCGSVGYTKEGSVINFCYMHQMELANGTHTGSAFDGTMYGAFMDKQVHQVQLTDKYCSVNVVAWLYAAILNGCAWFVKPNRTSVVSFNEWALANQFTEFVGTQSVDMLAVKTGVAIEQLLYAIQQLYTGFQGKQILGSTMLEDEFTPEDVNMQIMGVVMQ
# protocolDetails: biochemical
observedProperty: pKi
# pKi is unitless: minus log10 of the molar concentration; print number only

Quick one: pKi of CCCC(NC(=O)[C@H](CC(C)C)NC(=O)OCc1ccccc1)C(=O)C(=O)NCc1ccccn1 (stereo partly shown) ?
5.88

====

Items are presented alongside their recorded IC50.
# target: cathepsin L (Homo sapiens, UniProt P07711)
# Sequence (P07711 114-288): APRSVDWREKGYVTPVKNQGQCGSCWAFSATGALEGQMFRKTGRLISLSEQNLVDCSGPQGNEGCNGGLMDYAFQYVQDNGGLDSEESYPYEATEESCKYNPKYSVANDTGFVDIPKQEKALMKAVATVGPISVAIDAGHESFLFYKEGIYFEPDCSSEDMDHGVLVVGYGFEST
# Sequence (P07711 292-333): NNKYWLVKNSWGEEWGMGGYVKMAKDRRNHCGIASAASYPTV
# protocolDetails: FRET enzymatic assay
# Format: biochemical
Numeric only. Scale: nM

CC(C)C[C@H](NC(=O)[C@@H]1O[C@H]1C(=O)O)C(=O)NCCCCN=C(N)N [E-64, reference compound] ... 5.45

Switching to the query record.
Provide the documented IC50 with cathepsin L (Homo sapiens, UniProt P07711) as the system for CC(C)(C)NC(=O)N[C@H](C(=O)N1C[C@H]2[C@@H]([C@H]1C(=O)NC(CC1CCC1)C(=O)C(N)=O)C2(C)C)C(C)(C)C (some centres unmarked) [boceprevir]
153
